In this section, each of the molecules is paired with its reported IC50.
Test system: SW620 + A431
Assay: In vitro efficacy of naked antibodies and Compound d3, d38, d39 and d44, MTS
Type: cell-based
Details: Homo sapiens, 1 uM starting concentration

{"Molecule": "CC[C@@]1(O)C(=O)OCc2c1cc1n(c2=O)Cc2c-1nc1cc(F)c(C)c3c1c2[C@@H](NC(=O)[C@H](C)O)CC3", "IC50, nM": 2.81}
{"Molecule": "CC[C@@]1(O)C(=O)OCc2c1cc1n(c2=O)Cc2c-1nc1cc(F)c(C)c3c1c2[C@H](NC(=O)C1(CO)CCC1)CC3", "IC50, nM": 0.182}
{"Molecule": "CC[C@@]1(O)C(=O)OCc2c1cc1n(c2=O)Cc2c-1nc1cc(F)c(C)c3c1c2[C@H](NC(=O)[C@@H](O)C1CC1)CC3", "IC50, nM": 0.468}

* * *

System: SW620
Assay: In vitro efficacy of naked antibodies and Compound d3, d38, d39 and d44, MTS
Assay type: cell-based
Details: Homo sapiens, SW-620, 1 uM starting concentration

{"Molecule": "CC[C@@]1(O)C(=O)OCc2c1cc1n(c2=O)Cc2c-1nc1cc(F)c(C)c3c1c2[C@H](NC(=O)C1(CO)CCC1)CC3", "Value prefix": "=", "IC50 [nM]": 0.014}
{"Molecule": "CC[C@@]1(O)C(=O)OCc2c1cc1n(c2=O)Cc2c-1nc1cc(F)c(C)c3c1c2[C@@H](NC(=O)[C@H](C)O)CC3", "Value prefix": "=", "IC50 [nM]": 0.543}
{"Molecule": "CC[C@@]1(O)C(=O)OCc2c1cc1n(c2=O)Cc2c-1nc1cc(F)c(C)c3c1c2[C@H](NC(=O)[C@@H](O)C1CC1)CC3", "Value prefix": "<", "IC50 [nM]": 0.005}
